Entries with their measured pKi, system human serotonin transporter (Homo sapiens, UniProt P31645):
In textbook form, pKi equals minus log to base ten of the concentration in mol/L.

// solved cases for pKi follow
C[C@@H]1CNCCN1c1nc(-c2ccccc2)c2ccc(F)cc2n1 [Example 105]
7.19
Fc1cccc(-c2nc(NC3CCNCC3)nc3ccccc23)c1F [Example 156]
5.16

What measured pKi goes with Fc1ccc2c(-c3c(F)cccc3F)nc(N[C@H]3CCNC3)nc2c1 [Example 100] ?
6.19

Try the compound Fc1ccc2c(-c3c(F)cccc3F)nc(N3CCNCC3)nc2c1 [Example 98]
7.49

* * *

assay target: human norepinephrine transporter (Homo sapiens, UniProt P23975)
Sequence (P23975 whole entry): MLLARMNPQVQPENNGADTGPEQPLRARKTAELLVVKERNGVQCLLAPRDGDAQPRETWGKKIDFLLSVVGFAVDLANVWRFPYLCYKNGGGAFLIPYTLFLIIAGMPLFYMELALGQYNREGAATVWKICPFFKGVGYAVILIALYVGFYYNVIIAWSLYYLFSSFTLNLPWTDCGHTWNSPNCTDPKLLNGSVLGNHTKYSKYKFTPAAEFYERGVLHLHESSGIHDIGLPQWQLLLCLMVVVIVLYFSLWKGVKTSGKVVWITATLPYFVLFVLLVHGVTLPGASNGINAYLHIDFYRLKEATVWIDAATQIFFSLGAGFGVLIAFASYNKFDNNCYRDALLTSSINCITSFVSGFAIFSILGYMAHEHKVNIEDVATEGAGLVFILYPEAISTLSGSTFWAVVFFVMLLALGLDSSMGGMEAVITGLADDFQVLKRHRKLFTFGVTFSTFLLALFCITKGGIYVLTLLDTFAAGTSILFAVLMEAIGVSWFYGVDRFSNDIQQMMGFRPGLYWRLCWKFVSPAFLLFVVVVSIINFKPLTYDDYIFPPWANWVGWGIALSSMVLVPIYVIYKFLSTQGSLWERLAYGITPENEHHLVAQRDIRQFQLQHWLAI
Cut-off 0.03 µM on Ki: below means MET, at or above means NOT MET.

Record excerpt, results attached:
c1ccc(-c2nc(N3CCNCC3)nc3ccccc23)cc1
MET
C[C@@H]1CNCCN1c1nc(-c2ccccc2)c2ccc(F)cc2n1
MET
Fc1ccc2c(-c3cccc(F)c3F)nc(N[C@@H]3CCNC3)nc2c1
NOT MET

Determine whether this compound shows Ki lower than 0.03 µM (ties excluded): `CN1CC2CCCC(C1)N2c1nc(-c2ccccc2)c2ccccc2n1`
NOT MET

Try the compound `Clc1ccc(-c2nc(N3CCNCC3)nc3ccccc23)cc1`
MET

Try the compound Cl.Fc1ccccc1-c1nc(N2CCNCC2)nc2ccccc12 [Example 20, hydrochloride]
MET
